protocol notes: yeast display, Sf9 membrane polyspecificity reagent, FACS + sequencing; frameworks hold sequencing errors
quantity measured: polyreactivity (PSR sort gate)

Use these answered entries as a reference point.
QVQLVESGGGLVQAGGSLRLSCAASGRIVGRYVMGWYRQARGKERELVAAITSGGSTYYADSVKGRFTISRDNAKNTVYLQMNSLKPEDTAVYYCAAKWRSPRYYLYGYWGQGTQVTVSS    high polyreactivity
QVQLVESGGGLVQAGGSLRLSCAASGSIFIANAMGWYRQAPGKERELVAAISSSDSSTYYADSVKGRFTISRDNAKNTVYLQMNSLKPEDTAVYYCAATYWYWYREGYYWGQGTQVTVSS    high polyreactivity
QVQLVESGGGLVQAGGSLRLRCGASGFIFEHYAMGWYRPAPAKERDFVAAISGSGGNKYYADSVKGRFTISRDNAKNTVYLQMNSLKPEDTAVYSCNKVDGTTLDDHYMDYWGQGTQVTVSS    low polyreactivity
QVQLVESGGGLVQAGGSLRLSCAASGLTFNVYAMGWYRQAPGKERELVAAITRSTGRTYYADSVKGRFTISRDNAKNTVYLQMNSLIPEDTAVYYCNRVSRQYYYQRGFEYDYWGQGTQVTVSS    high polyreactivity
QVQLVESGGGLFQTGGSLRLSRAASGRTFRYYVMGWYRQAPWKESELVAAISWSGGRTNYADSVKGRFTISRDNAKNTVYLQMNCLKPEDTSVYYCIAAGPALRRYDYWGQGTQVTVSS    high polyreactivity
QVQLVESGGGLVQAGGSLRLSCAASGIIFRGYAMGRNRHAPGKERELVARISTSGGSTYYADSVKGRFTISRDNAKNTVYLQMNSLKPEDTAVYYCAATRSFLTSWYYRSTSTRDYWGQGTQVTVSS    high polyreactivity

Reported polyreactivity (PSR sort gate), sequence "QVKLVESGGGLVQAGGSLRLSCAASGSTFSPYVKAWYRQAPGKERELVAAIRYRGGSTYYADSVKGRFTISRDNAKNTVYLQMNSLKPEDTAVYYCATKRSHYSGGYWGQGTQVTVSS" : ____
high polyreactivity

Reported polyreactivity (PSR sort gate), sequence "QVQLVESGGGLVQAGGSLRLSCAASGIIFAFYAMGWYRQAPGKERELVATISKSGGRTYYADSVKGRFTISRDNAKNTVYLQMNSLNPEDTAVYYCAARIQYAFGADYYWGQGTQVTVSS" : ____
low polyreactivity

Reported polyreactivity (PSR sort gate), sequence "QVQLVESGGGLVQAGGSLRLSCAPSGSTFGSNAMGWYRQAPGKERELVAAINSGDSTSYADSVKGRFTISRDNAKNTVYLQMNSLKPEDTAGYYCATRSYTFVWRHDYWGQGTQVTVSS" : ____
low polyreactivity

Reported polyreactivity (PSR sort gate), sequence "QVQLVESGGGLVQAGGSLRLSCAASGSIFRPYAMGWYRPAPGQDRELVAAISSSGGGTYYADSVKGRFTISRDNAKKTVYLQMNSLKPEDTAVYLYGSWGQGTQVTVSS" : ____
low polyreactivity

Reported polyreactivity (PSR sort gate), sequence "QVQLVESGGGLVPAGGSLRLSCAASGLTFGRYAMRSYRQAPGKEREMVARISRSGGRTYYADSVKGRFTISRDNAKNTVYLQMNSLKPEDTAVYYCAATGSYYGGDHDYWGQGTQVTVSS" : ____
high polyreactivity

---

protocol notes: yeast display, Sf9 membrane polyspecificity reagent, FACS + sequencing; frameworks hold sequencing errors
quantity measured: polyreactivity (PSR sort gate)

QVQLVESGGGLVQAGGSLRLSCAASGIIFTYYAMGWYRQAPGKERELVAGISSSGGITYADSVKGRFTISRDNAKNTVYLQMNSLKPEDTAVYYCAAESYGRSETEDDYWGQGTQVTVSS    low polyreactivity
QVQLVESGGGLVQAGGSLRLSCAASGITSSYAMGWYRQAPGKERELVAAISRGGSTYYADSVKGRFTISRDNAKNTVYLQMNSLKPEDTAVYYCNKRRYPYGWGQGTQVTVSS    high polyreactivity
QVQLVESGGGLVQAGGSLRLSCAASGGIFKWYDMGWYRQAPGKEREFVAAITWSGGSTYYADSVKGRFTISRDNAKNTVYLQMNSLKPEVTAVYYCNVDWYPRGPHTVVFYDVSPFDYWGQGTQVTVSS    high polyreactivity
QVQLVESGGGLVQAGGSLRLSCAASVITSPYAMGWYRQAPGKERELVAAISWSGSSTYYADSVKGRFTISRDNAKNTVYLQINSLKPEDTAVYYCATLVSDSRSRRFGYEYWGQGSQVTVSS    high polyreactivity
QVQLVESGGGLVQARGSLRLSWAASGSTFQVYAMGWSRPAPGKERELVAAINYSGGSTYYADSVKGRFTISRDNAKNTVYVLMNSLKPEDTAVYYCAVKLRSRAGTSYGYWGQGTQVTVSS    high polyreactivity
QVQLVESGGGLVQAGGSLRLSCAASGHTFRGYDMGWYRQATGKQRELFASISSSGGSTYYADSVKGRFTISRDNAKNTVYLQMNSLKPEDTAVYYCATRDGVVDTEPDQSYAVELDYWGQGTQVTVSS    low polyreactivity
QVQLVESGGGLVQEGGSLRLSCADSGFTSCDNDMGWYRQAPGKERELVAAISRGGSTNYADSVKGRFTISRDNAKNTFYLQMNSLKPEDSEVYYCATAAVTPVWYDYWGKGTQVTVSS    low polyreactivity
QVQLVESGGGLVQAGGSLRLSCAASGRTFRLYAMGWYRQAPGKERELVAAISRRGGSTYYADSVKGRFTISRDNAKNTVYLQMNSLKPEDTAVYYCAKGLGSGQEIYGYDYWGQGTQVTVSS    high polyreactivity

Reported polyreactivity (PSR sort gate), sequence "QVQLVESGGGLVQAGGSLRLSCAASGSTFTDYAMGWYRQAPGKERELVAAIDSGGITNYADSVKGRFTISRDNAKNTVYLQMNSLKPEDTAVYYCAVEGEYLTPSGRYRLDYWGQGTQVTVSS" : ____
low polyreactivity

Reported polyreactivity (PSR sort gate), sequence "QVQLVESGGGLVQAGGSLRLSCAASGSIFRGYTMGWYIQAPGKERELVAAISTRGGSTYYADSVKGRFTISRDNSKNTVYLQMNSLKPEDTAVYYCNARSRGRASGYDYWGQGTQVTVSS" : ____
high polyreactivity

Reported polyreactivity (PSR sort gate), sequence "QVQLVESGGGLVQAGGSLRISCAASGSNFAYYAMGWYRQAPGKERELVAAITRGGRTYYADSVKGRFTISRDNAKNTVYLQMNSLKPEDTAVYYCNARNYTWYSSRFMRFDYWGLGTQVTVSS" : ____
high polyreactivity

Reported polyreactivity (PSR sort gate), sequence "QVQLVESGGGLVQAGGSLRLSCAASGSILTRNAMGWYRQAPGKERELVAAISYSGVRTYYADSVKGRFTISRDNAKNTVYLQMNSLKPEDTAVYYCNAVISSRYDYWGQGTQVTVSS" : ____
high polyreactivity

Reported polyreactivity (PSR sort gate), sequence "QVQLVESGGGLVKAGGSLRLSCAASGSISAGNAMGWNIHAPGKERELVAAISGSGGSTFYADSVKGRFTISRYNAKNSVYLQINSLKPEDTAVYYCAARGGYRLRYIPYVRYDYWGQGTQVTVSS" : ____
high polyreactivity

Reported polyreactivity (PSR sort gate), sequence "QVQLVESGGGLVQAGGSLRLSCAASGSTLYYYAMGWYRQAPGTERELGAAITWSGDSTYYADSVKGRFTISRDNAKNTVYLQMNSLKPEDTAVYYCAAEVESYDPYYTYDYWGQGTQVTVSS" : ____
high polyreactivity

Reported polyreactivity (PSR sort gate), sequence "QVQLVESGGGLVQAGGILRISCAASGRNLSRNAMGWYRQAPGKERELVAAISRSGSRTYYADSVKGRFTISRDNAKNSVYLLMNSLKPEDTAVYYCNAESYLSGWWYDYWGQGTQVTVSS" : ____
high polyreactivity

---

protocol notes: yeast display, Sf9 membrane polyspecificity reagent, FACS + sequencing; frameworks hold sequencing errors
quantity measured: polyreactivity (PSR sort gate)

Use these answered entries as a reference point.
QVQLVESGGGLVQAGGSLRLSCPASGSTFYEYAMGWYRQEPGKERELVAAITSGGSTYYADSVKGRFTISRDNAKYTVYLQLNSQKPEDTAVYYCAADPRIRRGDRSTHGYDYWGQGTQVTVSS    low polyreactivity
QVQLVESGGGLVQAGGSLRLSCAASGFIFQQNAMGWYIQAPGKERELVAAISRSGGRTYYADSVKGRFTISRDNAKNTVYLQMNSLKPEDSAVYYCATRFYTKAFEYDYWGQGTQVTVSS    high polyreactivity
QVQLVASGGGLVQAGGSLRLSCAASGRIFYAYAMGWYRQAPGKERELVAAITISASSTYYADSVKGRFTFSRDNAKNTVYLQMNSLKPEETAVFYCAAAYRRPWWYSYRYGYWGQGTQVTVSS    high polyreactivity
QVQLVESGGGLVQAGGSLRLSCAASGFTLAGYAMGWYRQAPGKERELVSAITTSGGSTFYADSVKGRFTISRDNAKNTDYLKMNSLKPEDTAVYYCAAAIRTRTSYYRFDYWGQGTQVTVSS    high polyreactivity

Then this sequence:
Reported polyreactivity (PSR sort gate), sequence "QVQLVESGGGLVQAGGSLRLSCAASGRTFSRNAMGRYRQAPGKVRELVATISSSGVRTYYADSVKGRFTMSRDNAKNTVYLQMNSLKPEETAVYYWAAAWRYYSAASGYDYWGQGTLVTVSS" : ____
low polyreactivity
